Assay system Tyrosine-protein phosphatase non-receptor type 7 (Homo sapiens); read-out recorded as pIC50.
pIC50: −log10 of the molar value.

Look over these answered cases.
>>> endpoint_result("O=C(O)/C=C/c1ccc(O)c(O)c1")
"< 4.00"
>>> endpoint_result("CC(C)=CCOc1c2occc2cc2ccc(=O)oc12")
"< 4.00"
>>> endpoint_result("CCCCC/C=C\\C/C=C\\CCCCCCCCC(=O)O")
"< 4.00"

Qu. Request the reported pIC50 associated with CCCCC/C=C\C/C=C\CCCCCCCCCCC(=O)O
Ans. 4.35

Qu. What value of measured pIC50 is listed for CCCCCCCCCCCCCCCCCCCCCCCCCCCCCCCC(=O)O ?
Ans. < 4.00

Qu. Value lookup for pIC50; key = C=CC(O)C#CC#CC(O)/C=C\C(O)CCCCCC (stereo unspecified)
Ans. < 4.00
